Test system: Bacillus subtilis DB104 (SP-AmyQ fusion secretion)
Experiment: AmyQ secretion efficiency, weighted average sort bin (1 = best secretion, 10 = worst) (bin number (weighted average, 1-10)); higher = lower secretion efficiency
Classify by measured AmyQ secretion efficiency: Fulfilled if it is equal to or exceeds 6, Not fulfilled if it is smaller.

Recorded results for 4 sequences are shown here.
MKQIMIFLTSFMLLAMTGQTALAADE Not fulfilled
MRNLTKTSLLLAGLCTAAQMVFVTHGSAEES Not fulfilled
MRFTKVRRKKSVLGLAAVFPLTAQAEKA Fulfilled
MMIKQNMSSNSSCVICLSLLVFGTTAAHAEET Not fulfilled

Exam item: decide whether the reported AmyQ secretion efficiency for MKKSQYFIVFICFFVLFSVHPIAAAAASS is at least 6. Not fulfilled

Exam item: decide whether the reported AmyQ secretion efficiency for MKKSQYFIVFICFFVLFSVHPIASAAADS is at least 6. Not fulfilled

Exam item: decide whether the reported AmyQ secretion efficiency for MIAYFGKCLLLVTIMFLGVLFVMQQANHG is at least 6. Fulfilled

Exam item: decide whether the reported AmyQ secretion efficiency for MKRSMLFILVLSFLSIIVAYPIQTNASPM is at least 6. Not fulfilled

Exam item: decide whether the reported AmyQ secretion efficiency for MKRLLVSLRVWMVFLMNWVTPDRKTAAYAVY is at least 6. Fulfilled

###

Tested on: Bacillus subtilis DB104 (SP-AmyQ fusion secretion)
Experiment: AmyQ secretion efficiency, weighted average sort bin (1 = best secretion, 10 = worst) (bin number (weighted average, 1-10)); higher = lower secretion efficiency
Recorded Metric: AmyQ secretion efficiency
Give bare numbers.

MKLAKRTSALTPSTTLAITAKAKEL 6.93
MKKTTTKYFMFGLVMGFSQFQPSTVFAADK 3.56
MTTAAAVLLSLGLVFGFSYGAGHVAEAKTK 2.82
MRSYIKVLTMCFLGLILFVRRKALADNS 6.5
MLCVMMLLFSAIASAQAKDQ 6.18
MNKKYFKRRKCKRFTSALFPTFSSVTAAQG 6.71

--- query ---
What value of AmyQ secretion efficiency has been recorded for this entry: MKKSQYFKRRKCFFVLFSVHPIAAAAADS 9.07

###

Tested on: Bacillus subtilis DB104 (SP-AmyQ fusion secretion)
Experiment: AmyQ secretion efficiency, weighted average sort bin (1 = best secretion, 10 = worst) (bin number (weighted average, 1-10)); higher = lower secretion efficiency
Classify by measured AmyQ secretion efficiency: 1 (yes) if it is equal to or exceeds 2, 0 (no) if it is smaller.

MKWMCSICCAAVLLAGGANQAEAV 1 (yes)
MRKILALFVLSLGLLSFMVTPVSAASK 0 (no)
MGMKKKYTQGSRYRALGLALVGGGTWAAFN 1 (yes)
MTKLKMLSMLTVMIASLFIFSSQILAVQY 1 (yes)
MTMLRKIIGWILLLCIIPLFAFTVIESGKEV 1 (yes)
MKRMIVRMTLPLLIVCLAFSTSFSASARAASE 1 (yes)

Exam item: decide whether the reported AmyQ secretion efficiency for MRKVFPLILSAVLFLSCFFGARQTEASASKR is at least 2. 1 (yes)

Exam item: decide whether the reported AmyQ secretion efficiency for MKRLCLWFTVFSLFLVLLPGKALYAVD is at least 2. 1 (yes)

Exam item: decide whether the reported AmyQ secretion efficiency for MRKKRGYRCGMAASLTLGSLLPAGYASAKED is at least 2. 1 (yes)

Exam item: decide whether the reported AmyQ secretion efficiency for MRPVFPLILSAVLFLSCFFGARQTEASGSKR is at least 2. 0 (no)

Exam item: decide whether the reported AmyQ secretion efficiency for MMKKLFHSTLIVLLFFSFFGVQPIHAAED is at least 2. 1 (yes)

Exam item: decide whether the reported AmyQ secretion efficiency for MKKKQVMLALTAAAGLGLTALHSAPAVAGAAKAAPL is at least 2. 1 (yes)
